Measured solubility at 18 h, listed per entry for reference.
assay-comment: Water solubility assay (pH 7.8 buffer)
Type: physicochemical
recorded-conditions: 35 mM HEPES buffer; 35 mM HEPES pH 7.8, 1% DMSO, 25° C., 18 h; concentration at which compound remains in solution; read-out: Solubility
Numbered stars: 1 amine (or outer) side, 2 acyl side, 3 side chain; on linkers, the order of the positions; unused ones are H or OH. Square brackets hold non-standard residues; d marks the D form. Peptide text beside a SMILES is read from it. X13 = C[C@H](CCN(Cc1ccccn1)Cc1ccccn1)[C@@H](O)[C@H](C(=O)[*:2])N(C)[*:1]; X2 = C[C@H](CCCc1cccc(N2CCOCC2)n1)[C@@H](O)[C@H](C(=O)[*:2])N(C)[*:1]; X17 = C[C@H](CCN(C)CCc1ccccn1)[C@@H](O)[C@H](C(=O)[*:2])N(C)[*:1]; X24 = C[C@H](CCN(C)CC1COCCO1)[C@@H](O)[C@H](C(=O)[*:2])N(C)[*:1]; d(aThr) = C[C@@H](O)[C@@H](N)C(=O)O; NMeL = CN[C@@H](CC(C)C)C(=O)O; dNMeL = CN[C@H](CC(C)C)C(=O)O; dNMeV = CN[C@@H](C(=O)O)C(C)C; Hiv = CC(C)[C@H](O)C(=O)O; Sar = CNCC(=O)O

Below are worked cases with known answers.
| molecule | solubility at 18 h |
| --- | --- |
| CC(C)C[C@@H]1C(=O)N[C@H](CC(C)C)C(=O)N(C)[C@H](C(C)C)C(=O)N(C)[C@H]([C@H](O)[C@H](C)CCN(C)CCc2ccccn2)C(=O)N[C@H]([C@@H](C)O)C(=O)N(C)CC(=O)N(C)[C@@H](CC(C)C)C(=O)N[C@H](CC(C)C)C(=O)N(C)[C@H](CC(C)C)C(=O)N[C@H](C)C(=O)O[C@@H](C(C)C)C(=O)N1C [Example 4] (cyclo([Hiv][dNMeL][dL][dNMeV][X17][d(aThr)][Sar][NMeL][dL][dNMeL][dA])) | 25 to 50 µM |
| CC(C)C[C@@H]1C(=O)N[C@H](CC(C)C)C(=O)N(C)[C@H](C(C)C)C(=O)N(C)[C@H]([C@H](O)[C@H](C)CCN(C)CC2COCCO2)C(=O)N[C@H]([C@@H](C)O)C(=O)N(C)CC(=O)N(C)[C@@H](CC(C)C)C(=O)N[C@H](CC(C)C)C(=O)N(C)[C@H](CC(C)C)C(=O)N[C@H](C)C(=O)O[C@@H](C(C)C)C(=O)N1C (stereo partly drawn) [Example 8] (cyclo([Hiv][dNMeL][dL][dNMeV][X24][d(aThr)][Sar][NMeL][dL][dNMeL][dA])) | > 100 µM |
| CC(C)C[C@@H]1C(=O)N[C@H](CC(C)C)C(=O)N(C)[C@H](C(C)C)C(=O)N(C)[C@H]([C@H](O)[C@H](C)CCN(Cc2ccccn2)Cc2ccccn2)C(=O)N[C@H]([C@@H](C)O)C(=O)N(C)CC(=O)N(C)[C@@H](CC(C)C)C(=O)N[C@H](CC(C)C)C(=O)N(C)[C@H](CC(C)C)C(=O)N[C@H](C)C(=O)O[C@@H](C(C)C)C(=O)N1C [Example 30] (cyclo([Hiv][dNMeL][dL][dNMeV][X13][d(aThr)][Sar][NMeL][dL][dNMeL][dA])) | 10 to 25 µM |

# next molecule below
Ask | Report solubility at 18 h, nothing else, for this molecule: CC(C)C[C@@H]1C(=O)N[C@H](CC(C)C)C(=O)N(C)[C@H](C(C)C)C(=O)N(C)[C@H]([C@H](O)[C@H](C)CCCc2cccc(N3CCOCC3)n2)C(=O)N[C@H]([C@@H](C)O)C(=O)N(C)CC(=O)N(C)[C@@H](CC(C)C)C(=O)N[C@H](CC(C)C)C(=O)N(C)[C@H](CC(C)C)C(=O)N[C@H](C)C(=O)O[C@@H](C(C)C)C(=O)N1C [Example 20] (cyclo([Hiv][dNMeL][dL][dNMeV][X2][d(aThr)][Sar][NMeL][dL][dNMeL][dA]))
Reply | 10 to 25 µM
